- assay.method.text: NCI Yeast Anticancer Drug Screen. Data for the rad14 strain (AID 159)
- test.conditions: S. cerevisiae rad14 strain growth inhibition; at 33.0 µM
Compounds without any hit were thinned out: in the full panel of roughly 79,000, 15% have a hit. Calls of active or inactive are those of the source. Cut-off read from the data, not from the text of the source: active = growth inhibition above about 70%; inactive = the rest.
Use one of these outcomes when replying: T = active, F = inactive

Some solved entries appear below for comparison.
compound=O=[N+]([O-])c1ccc(N/N=C/Cc2ccccc2)c([N+](=O)[O-])c1 assigned_class=F
compound="CCCCCCN(CCCCCC)CC(O)c1ccnc2ccc(OC)cc12 (stereo not given)" assigned_class=F
compound="CC1OC(O[C@H]2/C=C/C=C/C=C/C=C/C=C/C=C/C=C/[C@H](C)[C@@H](O)[C@@H](C)[C@H](C)OC(=O)C[C@H](O)C[C@H](O)CC[C@@H](O)[C@H](O)C[C@H](O)C[C@]3(O)C[C@H](O)[C@@H](C(=O)O)[C@H](C2)O3)C(O)C(N)C1O (stereo not given in full)" assigned_class=T
compound=Cc1cc2c(cc1C)[n+]([O-])c(-c1nc3ccccc3s1)c(N)[n+]2[O-] assigned_class=F
compound=O=c1[nH]c2ccc(Cl)cc2o1 assigned_class=F
compound=CC(C)(C)N=C(NO)c1ccccc1 assigned_class=F
compound=CNC(=O)OCc1c(COC(=O)NC)c(-c2ccc(Cl)cc2)n2c1CCC2 assigned_class=F
compound="CC1CC[C@]2(C(=O)O)CCC3(C)C(=CC(=O)C4[C@@]5(C)CCC(=O)C(C)(C)C5CC[C@]43C)[C@@H]2[C@H]1C (stereo not given in full)" assigned_class=T

(Q) So what was the verdict on "CC1(C)CC(=O)C(/C=N/c2nc(-c3ccccc3)cs2)=C(O)C1" in this test?
(A) F

(Q) Cool, now "CC1=NOC(=O)/C1=C/c1ccc2c(c1)OCO2"
(A) F

(Q) Could you do the same for "Cn1c(-c2ccc(/C=N\N3CCN(/N=C/c4ccc(-c5c[n+]6ccccc6n5C)cc4)CC3)cc2)c[n+]2ccccc12" , please?
(A) F

(Q) Try the compound CCCCCCCCCCCC(O)S(=O)(=O)O (stereo not given)
(A) F

(Q) # iterate: "CCCC(=O)Oc1ccc(/C=N/NC(N)=S)nc1"
(A) F

(Q) Proceed to CCC(C)OC(=O)Nc1ccc(C)c(NC(=O)OC(C)CC)c1 (stereo not given)
(A) F

(Q) How about "COc1ccc2[nH]cc([C@@H]3C4CCC(C4)[C@H]3NCc3cccc(CN[C@H]4C5CCC(C5)[C@@H]4c4c[nH]c5ccc(OC)cc45)c3)c2c1" ?
(A) T

(Q) One more compound: CN(C)C=NC1CCC(C(C)(C)C)CC1 (stereo not given)
(A) T

(Q) For "Cc1cc(C(C)(C)C)c(OCCCN2CCOCC2)c(C(C)(C)C)c1" then?
(A) F

(Q) Note, next up: O=C(c1ccc([N+](=O)[O-])cc1)C1N=NCC1c1ccccc1 (stereo not given)
(A) F

(Q) "O=[N+]([O-])c1cc[n+]([O-])cc1" , same question.
(A) F

(Q) // repeat for "O=P(NC1CCCCC1)(OCc1ccccc1)OCc1ccccc1" and report
(A) F
